Structures can show the parent of a compound that is named as a salt.
MEASURED PARAMETER: melting point

Answered examples (6):
INSERT INTO measurements (compound, meas_value) VALUES
  ('COc1cccc2c1C[C@H]1C[C@@H](CN3CCC(NC(=O)C(c4ccccc4)c4ccccc4)CC3)CN(C)[C@@H]1C2 [Example 12]', '219 to 222 °C'),
  ('COc1ccc(C2(c3ccc(OC)cc3)CCN(CC[C@@H]3C=C4c5cccc6[nH]cc(c56)C[C@H]4N(C)C3)CC2)cc1', '184 to 187 °C (dec.)'),
  ('CN1C[C@H](CN2CCN(C(c3ccccc3)c3ccccc3)CC2)C=C2c3cccc4[nH]cc(c34)C[C@H]21', '> 200 °C (dec.)'),
  ('COc1ccc(C2(c3ccc(OC)cc3)CCN(C[C@H]3CN(C)[C@@H]4Cc5c[nH]c6cccc(c56)[C@@]4(OC)C3)CC2)cc1', '215 to 222 °C'),
  ('COc1ccc(C2(c3ccc(OC)cc3)CCN(C[C@H]3CN(C)[C@@H]4Cc5c(Br)[nH]c6cccc(c56)[C@@]4(OC)C3)CC2)cc1 (as salt: tartrate)', '167 to 172 °C'),
  ('COc1cccc2c1C[C@H]1C[C@@H](CN3CCC(O)(c4ccc(Cl)cc4)CC3)CN(C)[C@@H]1C2', '202 to 204 °C');

Okay, now this compound:
Which melting point value is on record for COc1ccc(C2(c3ccc(OC)cc3)CCN(C[C@@H]3C[C@@H]4Cc5c(cccc5OC)C[C@H]4N(C)C3)CC2)cc1 (as salt: fumarate) ?
216 to 219 °C

* * *

For each record, write down the corresponding melting point.

Look at each compound and report its melting point.
1. CCN1C[C@H](CN2CCN(C(c3ccccc3)c3ccccc3)CC2)C[C@@H]2c3cccc4[nH]cc(c34)C[C@H]21
2. CO[C@]12C[C@@H](CN3CCC(O)(c4ccc(Cl)c(C(F)(F)F)c4)CC3)CN(C)[C@@H]1Cc1c[nH]c3cccc2c13
3. CO[C@]12C[C@@H](CCN3CCN(C(c4ccccc4)c4ccccc4)CC3)CN(C)[C@@H]1Cc1c[nH]c3cccc2c13
4. COc1cccc2c1C[C@H]1C[C@@H](CCN3CCN(C(c4ccccc4)c4ccccc4)CC3)CN(C)[C@@H]1C2
5. CN1C[C@H](CCN2CCN(C(c3ccccc3)c3ccccc3)CC2)C[C@@H]2c3cccc4[nH]cc(c34)C[C@H]21

203 to 205 °C
143 to 146 °C
130 °C
140 to 148 °C
206 to 212 °C

Look at each compound and report its melting point.
1. CN1C[C@H](CN2CCC(O)(c3ccc(Cl)cc3)CC2)C=C2c3cccc4c3c(cn4C)C[C@H]21
2. CN1C[C@H](CN2CCN(C(c3ccccc3)c3ccccc3)CC2)C[C@@H]2c3cccc4[nH]cc(c34)C[C@H]21

101 to 107 °C
230 to 233 °C

* * *

Counter-ions that a name gives are not always drawn.
MEASURED PARAMETER: melting point

INSERT INTO assay_data (compound, measured_parameter, meas_value) VALUES
  ('COc1cccc2c1C[C@H]1C[C@@H](CN3CCN(C(c4ccccc4)c4ccccc4)CC3)CN(C)[C@@H]1C2 [Example 10]', 'melting point', '278 to 280 °C'),
  ('CN1C[C@H](CN2CCN(C(c3ccccc3)c3ccccc3)CC2)C[C@@H]2c3cccc4[nH]c(Br)c(c34)C[C@H]21', 'melting point', '255 °C (dec.)'),
  ('CN1C[C@H](CCN2CCC(O)(c3ccc(Cl)cc3)CC2)C=C2c3cccc4[nH]cc(c34)C[C@H]21', 'melting point', '154 to 157 °C'),
  ('CN1C[C@H](CN2CCN(C(c3ccccc3)c3ccccc3)CC2)C[C@@H]2c3cccc4[nH]c(Cl)c(c34)C[C@H]21', 'melting point', '250 °C (dec.)');

Look at each compound and report its melting point.
1. COc1cccc2c1C[C@H]1C[C@@H](CCN3CCC(O)(c4ccc(Cl)cc4)CC3)CN(C)[C@@H]1C2 (as salt: succinate)
2. COc1ccc(C2(c3ccc(OC)cc3)CCN(CC[C@@H]3C[C@@H]4Cc5c(cccc5OC)C[C@H]4N(C)C3)CC2)cc1 (as salt: succinate)
3. CO[C@]12C[C@@H](CCN3CCC(O)(c4ccc(Cl)cc4)CC3)CN(C)[C@@H]1Cc1c[nH]c3cccc2c13

["212 to 215 °C", "138 to 142 °C", "133 to 139 °C"]

* * *

For each record, write down the corresponding melting point.

Answered examples (7):
INSERT INTO results (entry_smiles, measured_parameter, meas_value) VALUES
  ('CN1C[C@H](CN2CCC(O)(c3ccc(Cl)cc3)CC2)C=C2c3cccc4[nH]c(Cl)c(c34)C[C@H]21', 'melting point', '> 192 °C (dec.)'),
  ('CN1C[C@H](CN2CCN(C(c3ccccc3)c3ccccc3)CC2)C=C2c3cccc4c3c(cn4C)C[C@H]21', 'melting point', '172 to 175 °C'),
  ('CO[C@]12C[C@@H](CN3CCC(O)(c4cccc(C(F)(F)F)c4)CC3)CN(C)[C@@H]1Cc1c[nH]c3cccc2c13', 'melting point', '135 to 140 °C'),
  ('CN1C[C@H](CN2CCN(C(c3ccccc3)c3ccccc3)CC2)C=C2c3cccc4[nH]c(Cl)c(c34)C[C@H]21', 'melting point', '208 °C (dec.)'),
  ('COc1ccc(C2(c3ccc(OC)cc3)CCN(C[C@@H]3C=C4c5cccc6[nH]c(Cl)c(c56)C[C@H]4N(C)C3)CC2)cc1', 'melting point', '> 204 °C (dec.)'),
  ('CN1C[C@H](CCN2CCN(C(c3ccccc3)c3ccccc3)CC2)C=C2c3cccc4[nH]cc(c34)C[C@H]21', 'melting point', '165 to 169 °C'),
  ('CO[C@]12C[C@@H](CN3CCC(O)(c4ccc(Cl)cc4)CC3)CN(C)[C@@H]1Cc1c[nH]c3cccc2c13', 'melting point', '144 to 148 °C');

Okay, now this molecule:
Which melting point value is on record for "COc1ccc(C2(c3ccc(OC)cc3)CCN(CC[C@H]3CN(C)[C@@H]4Cc5c[nH]c6cccc(c56)[C@@]4(OC)C3)CC2)cc1" ?
129 to 136 °C
